Test: Acute toxicity (LD50)
Conditions: mouse, in vivo
recorded-metric: LD50 (mg/kg)
Quick note: give the figure in mg/kg, leave out the unit.

QUERY: Tell us which LD50 value is on record for CCOC(=O)C(C)(C)Oc1ccc(Cl)cc1 [Clofibrate, ethyl-2-(p-chlorophenoxy)-isobutyrate]
RESULT: 1150
